- targetDesc: NR2F6 (Homo sapiens, UniProt P10588)
- Construct: expressed in transfected cells; also transient transfection
- protocolSummary: NR2F6 agonist screening, Firefly signal cmpd/DMSO
- Assay type: cell-based
- conditionDetails: 2 uM
Assignment: determine reported Firefly F4, cmpd/DMSO (mean) for the given molecules.
// return just the number, without any unit appended

Item: `O=S1(=O)C[C@H](NCCCc2ccccc2)[C@@H](S(=O)(=O)c2ccc(Cl)cc2)C1` | Firefly F4, cmpd/DMSO (mean): 1.3

Item: `O=S1(=O)C[C@H](NCc2ccco2)[C@@H](S(=O)(=O)c2cccs2)C1` | Firefly F4, cmpd/DMSO (mean): 2.4

Item: `CC(C)OCCCN[C@H]1CS(=O)(=O)C[C@@H]1S(=O)(=O)c1ccc(Cl)cc1` | Firefly F4, cmpd/DMSO (mean): 1.1

Item: O=S1(=O)C[C@H](NCC2CCCO2)[C@@H](S(=O)(=O)c2cccs2)C1 (stereo partly shown) | Firefly F4, cmpd/DMSO (mean): 2.3

Item: `O=S1(=O)C[C@H](N2CCCC2)[C@@H](S(=O)(=O)c2cccs2)C1` | Firefly F4, cmpd/DMSO (mean): 4.5

Item: `COCCN[C@H]1CS(=O)(=O)C[C@@H]1S(=O)(=O)c1ccc(Cl)cc1` | Firefly F4, cmpd/DMSO (mean): 1.1

Item: `CC(C)CCN[C@H]1CS(=O)(=O)C[C@@H]1S(=O)(=O)c1ccc(Cl)cc1` | Firefly F4, cmpd/DMSO (mean): 1.4

* * *

- protocolSummary: PK in rat plasma
- Format: in vivo
- conditionDetails: rat; Table 38; IV plasma, 1.13 mg/kg
quantity: MRT inf (min)
Give just the number in min; leave the unit off.

Item: COCCN[C@H]1CS(=O)(=O)C[C@@H]1S(=O)(=O)c1ccc(Cl)cc1 [Compound D136] | MRT inf: 22.2

* * *

- targetDesc: ERα (Homo sapiens)
- Construct: expressed in transfected cells
- Sequence (P03372 whole entry, species assumed): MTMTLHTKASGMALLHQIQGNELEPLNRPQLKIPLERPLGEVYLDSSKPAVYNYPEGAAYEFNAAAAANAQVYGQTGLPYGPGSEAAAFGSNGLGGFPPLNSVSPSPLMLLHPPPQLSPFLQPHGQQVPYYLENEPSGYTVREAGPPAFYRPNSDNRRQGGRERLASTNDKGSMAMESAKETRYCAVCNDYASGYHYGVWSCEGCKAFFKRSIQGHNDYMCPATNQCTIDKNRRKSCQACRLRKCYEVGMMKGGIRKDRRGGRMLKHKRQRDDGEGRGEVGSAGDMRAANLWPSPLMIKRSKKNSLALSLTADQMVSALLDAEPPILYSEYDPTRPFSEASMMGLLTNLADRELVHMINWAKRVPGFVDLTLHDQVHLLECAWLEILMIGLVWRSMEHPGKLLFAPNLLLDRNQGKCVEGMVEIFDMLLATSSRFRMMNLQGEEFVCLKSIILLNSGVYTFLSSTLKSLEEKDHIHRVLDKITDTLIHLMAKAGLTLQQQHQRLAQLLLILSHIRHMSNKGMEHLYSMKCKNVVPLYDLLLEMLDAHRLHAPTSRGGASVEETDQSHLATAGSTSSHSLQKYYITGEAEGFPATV
- protocolSummary: Counterscreening, Firefly signal with ERα transient transfection (Firefly_ERa)
- Assay type: cell-based
- conditionDetails: Table 15; 10 uM
Returns: string. Value is t if measured Firefly ERalpha transient, cmpd/DMSO (mean) is below 2, and f if it is greater than or equal to it.

Prompt: I'd appreciate it if you could check whether COc1cccc(-c2noc(Cn3nccc(Cl)c3=O)n2)c1 [Compound Z3] has Firefly ERalpha transient, cmpd/DMSO (mean) smaller than 2.
Completion: f

Prompt: I'd appreciate it if you could check whether COc1cccc(-c2noc(Cn3ncc(Cl)cc3=O)n2)c1 [Compound Z4] has Firefly ERalpha transient, cmpd/DMSO (mean) smaller than 2.
Completion: t

Prompt: I'd appreciate it if you could check whether CS(=O)(=O)Nc1ccc([N+](=O)[O-])c2nonc12 [Compound Z13] has Firefly ERalpha transient, cmpd/DMSO (mean) smaller than 2.
Completion: t

Prompt: I'd appreciate it if you could check whether Cc1ccc(NC(=O)c2n[nH]c3c2CCCCC3)cc1C [Compound Z2] has Firefly ERalpha transient, cmpd/DMSO (mean) smaller than 2.
Completion: t

Prompt: I'd appreciate it if you could check whether CCOC(=O)c1cnc2c(C)cc(C)cc2c1NCCCN1CCCCC1 [Compound Z9] has Firefly ERalpha transient, cmpd/DMSO (mean) smaller than 2.
Completion: f

* * *

- targetDesc: NR2F6 (Homo sapiens)
- Construct: expressed in transfected cells; also transient transfection
- Sequence (P10588 1-404): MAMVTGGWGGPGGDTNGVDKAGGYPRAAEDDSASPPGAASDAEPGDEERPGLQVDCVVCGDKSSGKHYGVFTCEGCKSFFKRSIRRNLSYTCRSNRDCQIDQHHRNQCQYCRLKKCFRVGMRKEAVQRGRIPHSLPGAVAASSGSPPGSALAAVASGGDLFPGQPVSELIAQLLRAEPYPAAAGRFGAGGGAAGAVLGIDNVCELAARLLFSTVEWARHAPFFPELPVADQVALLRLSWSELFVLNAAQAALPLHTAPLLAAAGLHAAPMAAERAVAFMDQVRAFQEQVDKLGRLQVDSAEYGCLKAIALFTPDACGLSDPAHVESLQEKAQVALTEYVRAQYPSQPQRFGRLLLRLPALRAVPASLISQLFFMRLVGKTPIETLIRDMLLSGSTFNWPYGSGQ
- protocolSummary: NR2F6 agonist screening, Firefly signal cmpd/DMSO
- Format: cell-based
- conditionDetails: 1% FBS; 10 uM
quantity: Firefly, F4/pGL4 for S/B(F4) > 3

Item: O=S1(=O)C[C@H](NC2CCCCC2)[C@@H](S(=O)(=O)c2ccc(Cl)cc2)C1 [Compound D124] | Firefly, F4/pGL4 for S/B(F4) > 3: 1.3

Item: O=S1(=O)C[C@H](N2CCCCC2)[C@@H](S(=O)(=O)c2ccc(Cl)cc2)C1 [Compound D123] | Firefly, F4/pGL4 for S/B(F4) > 3: 1.6

Item: CCCN[C@H]1CS(=O)(=O)C[C@@H]1S(=O)(=O)c1ccc(Cl)cc1 [Compound D117] | Firefly, F4/pGL4 for S/B(F4) > 3: 3.2

Item: CC(C)N[C@H]1CS(=O)(=O)C[C@@H]1S(=O)(=O)c1ccc(Cl)cc1 [Compound D118] | Firefly, F4/pGL4 for S/B(F4) > 3: 2.5

* * *

- targetDesc: NR2F6 (Homo sapiens, UniProt P10588)
- Construct: expressed in transfected cells; also transient transfection
- protocolSummary: NR2F6 agonist screening, Firefly signal cmpd/DMSO
- Format: cell-based
- Set-up: unit of the concentration uncertain
- conditionDetails: Concentration 2 (unit uncertain); NR2F6 full length
quantity: Firefly NR2F6 full length, cmpd/DMSO (mean)
// return just the number, without any unit appended

Item: `Cc1ccc(S(=O)(=O)N(Cc2nc3nc(C)c(S)c(C)n3n2)c2ccccc2)cc1` | Firefly NR2F6 full length, cmpd/DMSO (mean): 1.3

Item: `Cc1cc(C)c(S(=O)(=O)NCc2nc3nc(C)cc(C)n3n2)c(C)c1` | Firefly NR2F6 full length, cmpd/DMSO (mean): 1.3

Item: `Cc1cccn2cc(CNS(=O)(=O)c3ccccc3F)nc12` | Firefly NR2F6 full length, cmpd/DMSO (mean): 1.0

* * *

Assignment: determine reported Firefly F4, cmpd/DMSO (mean) for the given compounds.
- targetDesc: NR2F6 (Homo sapiens)
- Construct: expressed in transfected cells; also transient transfection
- protocolSummary: NR2F6 agonist screening, Firefly signal cmpd/DMSO
- Assay type: cell-based
- conditionDetails: 40 uM; clone F4
// return just the number, without any unit appended

Item: `Cc1cc(C)c2ncc(C(=O)N(C)C)c(NCCCN(C)C)c2c1` | Firefly F4, cmpd/DMSO (mean): 1.1

Item: `Cc1ccc(CCCNc2c(C#N)c(C(F)(F)F)nc3ccc(Oc4ccccc4)cc23)cc1` | Firefly F4, cmpd/DMSO (mean): 0.6

Item: `Cc1cc(C)c2ncc(C(=O)N3CCCC3)c(NCCCN(C)C)c2c1` | Firefly F4, cmpd/DMSO (mean): 1.5

Item: `CC(C)Nc1nc(N2CCOCC2)nc(N2CCn3c(cccc3=O)C2)n1` | Firefly F4, cmpd/DMSO (mean): 0.9

Item: COc1ccc(-c2cc3n(n2)C(N)=C(C#N)C(c2cccn2C)(C(F)(F)F)N3)cc1OC (stereo not drawn) | Firefly F4, cmpd/DMSO (mean): 0.6

Item: `N#Cc1c(C(F)(F)F)nc2ccc(Oc3ccccc3)cc2c1N1CCNCC1` | Firefly F4, cmpd/DMSO (mean): 0.7

Item: `CCOC(=O)Cc1sc(Nc2nc(C)cc(C)n2)nc1-c1ccccc1` | Firefly F4, cmpd/DMSO (mean): 0.6

Item: CCOC(=O)c1cnc2c(C)cc(C)cc2c1N1CCCC(N(C)C)C1 (stereo not drawn) | Firefly F4, cmpd/DMSO (mean): 0.7

Item: `N#Cc1c(C(F)(F)F)nc2ccc(Cl)cc2c1NC1CC1` | Firefly F4, cmpd/DMSO (mean): 0.7

Item: `CCOC(=O)c1cnc2c(Cl)cc(Cl)cc2c1NCCCN(C)C` | Firefly F4, cmpd/DMSO (mean): 1.2

Item: `COc1ccc2nc(C(F)(F)F)c(C#N)c(NCCc3ccc(Cl)cc3)c2c1` | Firefly F4, cmpd/DMSO (mean): 0.7

Item: N#CC1=C(N)n2nc(-c3ccccc3)cc2NC1(c1ccc(N2CCOCC2)cc1)C(F)(F)F (stereo not drawn) | Firefly F4, cmpd/DMSO (mean): 0.6

Item: `CCOC(=O)c1cnc2c(Cl)cc(Cl)cc2c1NCCCN1CCCCC1` | Firefly F4, cmpd/DMSO (mean): 0.7

Item: O=c1cccc2n1CCN(c1nc(NCC3CCCO3)nc(N3CCCC3)n1)C2 (stereo not drawn) | Firefly F4, cmpd/DMSO (mean): 0.9

Item: `CCOC(=O)c1cnc2cc(C)c(C)cc2c1NCCCN(C)C` | Firefly F4, cmpd/DMSO (mean): 0.7

Item: O=c1cccc2n1CCN(c1nc(NCC3CCCO3)nc(N3CCOCC3)n1)C2 (stereo not drawn) | Firefly F4, cmpd/DMSO (mean): 1.1

Item: COc1ccc(-c2cc3n(n2)C(N)=C(C#N)C(c2ccc(N4CCOCC4)cc2)(C(F)(F)F)N3)cc1OC (stereo not drawn) | Firefly F4, cmpd/DMSO (mean): 0.5

Item: COc1nc(NCCC2=CCCCC2)nc(N2CC3CC(C2)c2cccc(=O)n2C3)n1 (stereo not drawn) | Firefly F4, cmpd/DMSO (mean): 0.7
